The measured values listed here are drawn from paper PMC7914897.

System: HS 578T (Breast cancer)
protocol notes: NCI-60 screen (SRB, 48 h)
experimental context: Homo sapiens, 48 h, read-out: TGI
Binary call on IC (TGI) with cut-off 4 µM: strictly below means 1, and equality or higher means 0.

[[record]]
substance_smiles = "CC1(C)CC[C@]23CC[C@]4(C)[C@H](CC[C@@H]5[C@@]6(C)CCCNC(C)(C)[C@@H]6CC[C@]54C)[C@H]2[C@H]1OC3"
cat = 0

[[record]]
substance_smiles = "C[C@H]1[C@H](C)CC[C@]2(CO)CC[C@]3(C)C(=CC[C@@H]4[C@@]5(C)CCCNC(C)(C)[C@@H]5CC[C@]43C)[C@H]12"
cat = 0

[[record]]
substance_smiles = "C=C(C)[C@@H]1CC[C@]2(C)[C@H](CC=C3[C@@H]4[C@@H](C)[C@H](C)CC[C@]4(CO)CC[C@]32C)[C@@]1(C)CCCN"
cat = 1

[[record]]
substance_smiles = "C=C(C)[C@@H]1CCC=C2CC[C@]3(C)[C@H](CC[C@@H]4[C@@]5(C)CCCNC(C)(C)[C@@H]5CC[C@]43C)[C@H]21"
cat = 0

[[record]]
substance_smiles = "Cc1ccc(S(=O)(=O)OC[C@@]2(C)CC[C@]3(C)CC[C@]4(C)C(=C3C2)C=C[C@@H]2[C@@]3(C)CCCNC(C)(C)[C@@H]3CC[C@]24C)cc1"
cat = 0


* * *

System: SK-OV-3 (Ovarian cancer)
protocol notes: NCI-60 screen (SRB, 48 h)
experimental context: Homo sapiens, SK-OV-3, 48 h, read-out: TGI
Some molecules, each annotated with its measured IC (TGI).
experimental endpoint: IC (TGI) (µM)

[[record]]
molecule = "C=C(C)C1CCC2(CO)CCC3(C)C(CCC4C5(C)CCCNC(C)(C)C5CCC43C)C12 (centres unmarked) [Compound 1, Azepanobetulin]"
assay_result = 3.49

[[record]]
molecule = "CC1(C)NCCC[C@]2(C)[C@H]3C=CC4=C5C[C@@](C)(CO)CC[C@]5(C)CC[C@@]4(C)[C@]3(C)CC[C@@H]12 [Compound 6, azepano-glycyrrhetol-diene]"
assay_result = 28.6

[[record]]
molecule = "C=C(C)[C@@H]1CCC=C2CC[C@]3(C)[C@H](CC[C@@H]4[C@@]5(C)CCCNC(C)(C)[C@@H]5CC[C@]43C)[C@H]21 [Compound 8]"
assay_result = 3.37

[[record]]
molecule = "C=C(C)[C@@H]1CC[C@]2(C)[C@H](CC=C3[C@@H]4[C@@H](C)[C@H](C)CC[C@]4(CO)CC[C@]32C)[C@@]1(C)CCCN [Compound 19]"
assay_result = 12

[[record]]
molecule = "C[C@H]1[C@H](C)CC[C@]2(C(=O)Nc3ccc4ncccc4c3)CC[C@]3(C)C(=CC[C@@H]4[C@@]5(C)CCCNC(C)(C)[C@@H]5CC[C@]43C)[C@H]12 [Compound 14]"
assay_result = 3.27

[[record]]
molecule = "C=C(C)[C@@H]1CC[C@]2(C)[C@H](C=CC3=C4C[C@@](C)(CO)CC[C@]4(C)CC[C@]32C)[C@@]1(C)CCCN [Compound 20]"
assay_result = 3.17

[[record]]
molecule = "C=C(C)[C@@H]1CC[C@]2(COS(=O)(=O)c3ccc(C)cc3)CC[C@]3(C)[C@@H](CC[C@@H]4[C@@]5(C)CCCNC(C)(C)[C@@H]5CC[C@]43C)[C@@H]12 [Compound 12]"
assay_result = 3.3

[[record]]
molecule = "C[C@H]1[C@H](C)CC[C@]2(CO)CC[C@]3(C)C(=CC[C@@H]4[C@@]5(C)CCCNC(C)(C)[C@@H]5CC[C@]43C)[C@H]12 [Compound 4, azepanouvaol]"
assay_result = 3.97

[[record]]
molecule = "CC(C)=C1CCC=C2CC[C@]3(C)[C@H](CC[C@@H]4[C@@]5(C)CCCNC(C)(C)[C@@H]5CC[C@]43C)[C@H]21 [Compound 9]"
assay_result = 3.5

[[record]]
molecule = "CC1(C)CC[C@]2(CO)CC[C@]3(C)C(=CC[C@@H]4[C@@]5(C)CCCNC(C)(C)[C@@H]5CC[C@]43C)[C@@H]2C1 [Compound 3, azepanoerythrodiol]"
assay_result = 28.9

[[record]]
molecule = "C=C(C)[C@@H]1CC[C@]2(C(=O)N[C@H](CO)Cc3ccccc3)CC[C@]3(C)[C@H](CC[C@@H]4[C@@]5(C)CCCNC(C)(C)[C@@H]5CC[C@]43C)[C@@H]12 [Compound 11]"
assay_result = 3.23

